assay_overview: NCI Yeast Anticancer Drug Screen. Data for the mec2-1 strain (AID 157)
conditions: S. cerevisiae mec2-1 strain, at 5.0 µM (retest, dose inferred, filed as 0.5), active compounds read high
The panel holds about 79,000 compounds, 15% with a hit somewhere; the sample as a whole holds those more often.

molecule: Oc1c(C(Nc2ccccc2)c2ccccc2)ccc2cccnc12 (stereo unspecified)
growth inhibition / %: -2
//
molecule: COc1cc(/C=C/C(=O)CC(=O)/C=C/c2ccc(O)c(OC)c2)ccc1O
growth inhibition / %: 74
//
molecule: CSC(SC)=C(C#N)C(=O)Nc1cccc(Cl)c1
growth inhibition / %: 62
//
molecule: O/N=C1\c2ccccc2-c2ccc(F)cc21
growth inhibition / %: 7
//
molecule: CCOc1cc(F)c([N+](=O)[O-])cc1[N+](=O)[O-]
growth inhibition / %: 94
//
molecule: C1CCC(CCCc2nn[nH]n2)CC1
growth inhibition / %: -1

* * *

assay_overview: NCI Yeast Anticancer Drug Screen. Data for the cln2 rad14 strain (AID 165);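 further: 0% = growth equal to vehicle treated cultures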
conditions: S. cerevisiae cln2 rad14 strain, at 50.0 µM (retest, dose inferred, filed as 5.0)
About 79,000 compounds went through this panel and 15% of them were active in at least one assay; those are over-represented in the sample as a whole. The source made the active and inactive calls. No stated cut-off is given here; in the data, active means growth inhibition above about 70%; inactive means the rest.
Labels: active, inactive

compound: Cn1c(-c2ccccc2)c(/C=C/C2=[N+](C)c3ccccc3C2(C)C)c2ccccc21
assigned_class: active
//
compound: COc1ccc(OC)c(Cc2cnc3nc(N)nc(N)c3c2C)c1
assigned_class: inactive
//
compound: O=C1C=Cc2ccccc2/C1=C/c1nc(-c2ccccc2)oc1O
assigned_class: active
//
compound: CCc1oc2ccccc2c1C(=O)c1cc(Br)c(O)c(Br)c1
assigned_class: active
//
compound: Oc1cc(Cl)ccc1Cc1ccc(Cl)cc1O
assigned_class: active
//
compound: C/C(=N\NC(=S)N1CC2CCC(CC2)C1)c1ccccn1
assigned_class: active
//
compound: Nc1ccc(C(=O)/C=C/c2ccccc2)cc1
assigned_class: inactive
//
compound: CC(=O)Nc1ccc(/C=N/NC(=S)NCC(C)C)cc1
assigned_class: inactive
//
compound: CCCCC(CC)CNC(=O)/C=C\C(=O)O (configuration not stated)
assigned_class: inactive
//
compound: CC(C)c1ccc(C(=O)OC2CCCC2)cc1
assigned_class: active
//
compound: CCCCN(CCCC)CCCCCCCCCCO
assigned_class: inactive
//
compound: COc1c(C)c2c(c(O)c1C/C=C(\C)CCC(=O)O)C(=O)OC2
assigned_class: active

* * *

assay_overview: NCI Yeast Anticancer Drug Screen. Data for the rad50 strain (AID 155);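 further: 0% = growth of vehicle-only cultures of the same strain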
conditions: S. cerevisiae rad50 strain growth inhibition; at 50.0 µM (retest, dose inferred, filed as 5.0)
Experimental: Growth inhibition of yeast strains with defined genetic alterations is measured as a screen for potential anti-cancer activity. Selected strains with alterations in DNA damage repair or cell cycle control were exposed to compounds and growth inhibition was measured relative to vehicle treated controls. The strain used in this assay is rad50
Compounds without any hit were thinned out: in the full panel of roughly 79,000, 15% have a hit. The source made the active and inactive calls. No stated cut-off is given here; in the data, active means growth inhibition above about 70%; inactive means the rest.
Outcomes: active, inactive

compound: C(=N\Nc1ccc2ccccc2n1)/c1ccccn1
assigned_class: active

compound: CN(C)c1cc(N)c(Cc2c(N)cc(N(C)C)cc2Cl)c(Cl)c1
assigned_class: active

compound: O=C(CCl)N1c2ccccc2Sc2c1ccc1ccccc21
assigned_class: active

compound: O=C1C=CC(=O)N1c1cc(Cl)c(Cl)cc1Cl
assigned_class: active

compound: CCC(=O)c1ccc([N+](=O)[O-])o1
assigned_class: active

compound: CCOC(=O)C(NC(C)=O)C(=O)c1ccccc1 (configuration not stated)
assigned_class: inactive

compound: Nc1nc(-c2ccccc2)nc(N)c1N=O
assigned_class: active

* * *

assay_overview: NCI Yeast Anticancer Drug Screen. Data for the bub3 strain (AID 167)
conditions: S. cerevisiae bub3 mutant strain, at 50.0 µM
This is part of a sample that, as a whole, favours compounds with a hit. Of some 79,000 tested, about 15% had one in any assay. Activity calls are given as the source filed them. Rule as the data show it: active = growth inhibition above about 70%; inactive = the rest. *1 amine or outer side, *2 acyl side, *3 side chain or, on linkers, in order; H or OH if unused. Where a SMILES comes first, the peptide text is derived from it. Bridges are numbered along the chain shown (N, C = ends). Roman numbers before positions name the chains, in order. [ ]: non-standard residue; d: D form. Actinocin(1to9) = Cc1c2oc3c(C)ccc(C(=O)[*:2])c3nc-2c(C(=O)[*:1])c(N)c1=O; NMeV = CN[CH](C(=O)O)C(C)C; Sar = CNCC(=O)O
Outcome codes: 1 = active, -1 = inactive

molecule: O=C(O)CCCOc1cc(-c2ccccc2F)nc2cc3c(cc12)OCO3
assigned_class: 1
//
molecule: CC(C)(C)CC(C)(C)c1ccc(OCCOCCSC(=N)N)cc1
assigned_class: 1
//
molecule: COc1ccc(C(OCC2OC(n3ccc(NC(=O)c4ccccc4)nc3=O)C(O)C2O)(c2ccccc2)c2ccccc2)cc1 (centres undefined)
assigned_class: 1
//
molecule: COC1=CC(=O)c2c(O)c3c(c(O)c2C1=O)CC(C)(O)OC3 (centres undefined)
assigned_class: 1
//
molecule: CCC(C)C1NC(=O)C(NC(=O)c2c3nc4c(C(=O)NC5C(=O)NC(C(C)CC)C(=O)N6CCCC6C(=O)N(C)CC(=O)N(C)C(C(C)C)C(=O)OC5C)ccc(C)c4oc-3c(C)c(=O)c2N)C(C)OC(=O)C(C(C)C)N(C)C(=O)CN(C)C(=O)C2CCCN2C1=O (centres undefined) (I: TIP[Sar][NMeV] / II: TIP[Sar][NMeV]; ester I:1-I:C, II:1-II:C; linker I:N-II:N via Actinocin(1to9); configuration not given here)
assigned_class: 1
//
molecule: CC(=O)C1Cc2ccccc2C1=O (centres undefined)
assigned_class: -1
//
molecule: Clc1ccccc1C(c1ccccc1)(c1ccccc1)n1ccnc1
assigned_class: 1
//
molecule: Cc1ccccc1NC(=O)Cc1csc2[n+]1C(=O)/C(=C/c1ccc([N+](=O)[O-])cc1)S2
assigned_class: -1
//
molecule: N#CC1c2ccccc2C=CN1C(=O)CCCl (centres undefined)
assigned_class: 1

* * *

Here, each record is paired with measured growth inhibition data.
assay_overview: NCI Yeast Anticancer Drug Screen. Data for the rad50 strain (AID 155);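 further: 0% = growth of vehicle-only cultures of the same strain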
conditions: S. cerevisiae rad50 strain growth inhibition; at 50.0 µM (retest, dose inferred, filed as 5.0); active compounds read high
The panel holds about 79,000 compounds, 15% with a hit somewhere; the sample as a whole holds those more often. Active and inactive are the calls of the source. Rule as the data show it: active = growth inhibition above about 70%; inactive = the rest.
measurement_label: growth inhibition

test_smiles: [Cl-].[Rh+3].c1ccc(-c2ccnc3c2ccc2c(-c4ccccc4)ccnc23)cc1.c1ccc(-c2ccnc3c2ccc2c(-c4ccccc4)ccnc23)cc1.c1ccc(-c2ccnc3c2ccc2c(-c4ccccc4)ccnc23)cc1
measurement_label: growth inhibition
result: 65% (inactive)
//
test_smiles: CN1CCC(c2ccccc2)(c2ccccc2)C(=O)C1
measurement_label: growth inhibition
result: 95% (active)
//
test_smiles: CSS(C)(=O)=O
measurement_label: growth inhibition
result: 98% (active)
//
test_smiles: Cc1cc2cccnc2c2ncccc12
measurement_label: growth inhibition
result: 98% (active)
//
test_smiles: C/C(=N\NC(=S)N1CC2CCC(CC2)C1)c1ccccn1
measurement_label: growth inhibition
result: 65% (inactive)

* * *

assay_overview: NCI Yeast Anticancer Drug Screen. Data for the mec2-1 strain (AID 157)
conditions: S. cerevisiae mec2-1 strain, at 50.0 µM
Compounds without any hit were thinned out: in the full panel of roughly 79,000, 15% have a hit. Activity calls are given as the source filed them. No stated cut-off is given here; in the data, active means growth inhibition above about 70%; inactive means the rest. Where a SMILES comes first, the peptide text is derived from it. [ ]: non-standard residue; d: D form. ξ: configuration not given here. ξD = NC(CC(=O)O)C(=O)O
Labels: TRUE (active), FALSE (inactive)

compound: O=C1C=Cc2ccccc2/C1=C/c1nc(-c2ccccc2)oc1O
assigned_class: TRUE
//
compound: NC(=S)N/N=C\c1nccc2c(N)cccc12
assigned_class: TRUE
//
compound: C=C1C(=O)OC2CC1C(OC(=O)/C=C/c1ccccc1)C/C(C)=C/CC/C(C)=C/CCC2(C)O (stereo not given)
assigned_class: TRUE
//
compound: NCC(=O)NC(CC(=O)O)C(=O)O (stereo not given) (H-Gly-[ξD]-OH)
assigned_class: FALSE
//
compound: CC(C)(C)N/N=C(/Cc1nc2c3c(ccc2[nH]c1=O)C(=O)c1ccccc1C3=O)C(=O)NC1=C(Cl)C(=O)c2ccccc2C1=O
assigned_class: FALSE

* * *

assay_overview: NCI Yeast Anticancer Drug Screen. Data for the sgs1 mgt1 strain (AID 161);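 further: 0% = growth of cultures given vehicle only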
conditions: S. cerevisiae sgs1 mgt1 strain, at 5.0 µM (retest, dose inferred, filed as 0.5), active compounds read high
This is part of a sample that, as a whole, favours compounds with a hit. Of some 79,000 tested, about 15% had one in any assay. Activity calls are given as the source filed them. Cut-off read from the data, not from the text of the source: active = growth inhibition above about 70%; inactive = the rest.
measurement_label: growth inhibition

compound: O=C1C=CC(O)=CC1=P(c1ccccc1)(c1ccccc1)c1ccccc1
result: -1% (inactive)

compound: Cc1cc(O)c(O)c(C(C)(C)CC(C)(C)C)c1
result: 97% (active)

compound: Cc1cc(C(=C2C=CC(=Nc3ccccc3)C=C2)c2ccc(Nc3ccccc3)cc2)ccc1N
result: -5% (inactive)

compound: NC(=S)N/N=C\c1nccc2c(N)cccc12
result: 9% (inactive)

compound: N=C1C(=N)c2ccccc2-c2ccccc21
result: 17% (inactive)

compound: COc1ccc(NC(=O)/C(=C/N2C(=O)/C(=C/c3ccc(OC)c(OC)c3)NC2=S)C(C)=O)cc1
result: -5% (inactive)

compound: COc1ccc(C(N)=O)cc1
result: -5% (inactive)

compound: C=CCCCCCCCCC(=O)NN
result: 15% (inactive)

compound: S=C(SSC(=S)N1CCOCC1)N1CCOCC1
result: 99% (active)

compound: NC(=S)N/N=C\c1nccc2c(C(F)(F)F)cccc12
result: 6% (inactive)

compound: O=C(c1ccccc1)C(Br)[N+](=O)[O-] (centres undefined)
result: 99% (active)

compound: C=C(C)C1CC2(C)C(C)CC(O)CC2C(OC(=O)C=C(C)C)C1O (centres undefined)
result: 21% (inactive)

compound: CCCCCCCCCCCC(=O)OC(C)C(=O)NCCCC (centres undefined)
result: 2% (inactive)

compound: Oc1ccc2ccccc2c1N=Nc1nccs1
result: 98% (active)

compound: CC1CC(C)(C)OB(OC(C)CC(C)(C)OB2OC(C)CC(C)(C)O2)O1 (centres undefined)
result: -4% (inactive)

compound: O=[n+]1c2ccccc2n([O-])c2cc(Cl)ccc21
result: 77% (active)

compound: Cc1ccc(/C=N/Nc2cc(C)c3cccc(C)c3n2)s1
result: 3% (inactive)

compound: O=[N+]([O-])/C(=C/c1ccccc1)c1ccccc1
result: 99% (active)

compound: Cc1ccc(-c2c(C#N)c(-c3ccc(C)cc3)n(NS(=O)(=O)c3ccccc3)c(=O)c2C#N)cc1
result: 29% (inactive)

compound: Nc1nc(N)c2cc(Sc3cccc(C(F)(F)F)c3)ccc2n1
result: 15% (inactive)

compound: CC1=CC(=O)C=CC1(C)C(Cl)(Cl)Cl (centres undefined)
result: 0% (inactive)

compound: O=C(NNc1ccccc1)OCc1ccccc1
result: 42% (inactive)

compound: CCC(CC)(c1ccccc1)C(O)c1ccccc1 (centres undefined)
result: 6% (inactive)

compound: CC[n+]1ccc(Nc2ccc(NC(=O)c3ccc(Nc4cc[n+](CC)c5ccc([N+](=O)[O-])cc45)cc3)cc2)cc1
result: 84% (active)
